Listed compounds paired with reported GI50
system: OVCAR-4; experiment: NCI tumour cell line growth inhibition, 48 h
Calls of active or inactive are those of the source. Rule as the data show it: active = GI50 up to about 1.1 µM and inactive = higher.

Guide cases for GI50, answers given:
[
  {
    "compound": "CC(C)C[C@H](NC(=O)[C@H](CCc1ccccc1)NC(=O)c1ccc2ccccc2n1)B(O)O",
    "GI50": "0.185 µM (active)"
  },
  {
    "compound": "N=C(N)NS(=O)(=O)c1ccc(Nc2c3ccccc3nc3c(C(=O)N4CCN(CCO)CC4)cccc23)cc1",
    "GI50": "> 100 µM (inactive)"
  },
  {
    "compound": "CS(=O)(=O)c1nc(-c2cc3c(c(S(C)(=O)=O)n2)CCCC3)cc2c1CCCCC2",
    "GI50": "> 100 µM (inactive)"
  }
]

Look up GI50 with OVCAR-4 for this compound: COC(=O)C1=C(C)NC(C)=C(C(=O)OC)C1c1ccccc1NO
> 100 µM (inactive)

Do the same for CCN(CC)CCOCCn1c2c(c3ccccc31)CCCC2 please
26 µM (inactive)

Input C=C1CCCC2[C@](C)(CC3=C(Cl)C(=O)C=C(OC)C3=O)C(C)CC[C@]12C (stereo not given in full)
7.52 µM (inactive)

Then what about the compound COc1ccc(-[n+]2nc(S(=O)(=O)O)c(/C=C/c3ccc(N(C)C)cc3)cc2C#N)cc1 ?
> 100 µM (inactive)
